Test: Stability of the analytes in rat plasma QC samples (short-term, autosampler, freeze-thaw, long-term)
Details: 10 ng mL^−1, three freeze-thaw cycles -20°C to ambient temperature, n = 6
property name: Freeze–thaw strability (three cycles) Accuracy

Value lookup for Freeze–thaw strability (three cycles) Accuracy; key = Cc1coc2c1C(=O)C(=O)c1c-2ccc2c1CCCC2(C)C
101.22 ± 2.09%

Given the entry O=c1c(O)c(-c2ccc(O)cc2)oc2cc(O)cc(O)c12 , report its measured Freeze–thaw strability (three cycles) Accuracy.
103.21 ± 4.14%

# Freeze–thaw strability (three cycles) Accuracy lookup, item COc1cc(-c2oc3cc(O)cc(O)c3c(=O)c2O)ccc1O
94.52 ± 3.68%

Reported Freeze–thaw strability (three cycles) Accuracy for C[C@@H]1C(=O)O[C@H]2C[C@@]34[C@H]5C[C@@H](C(C)(C)C)[C@]36[C@@H](OC(=O)[C@@H]6O)O[C@@]4(C(=O)O5)[C@]21O [GA, ginkgolide A] : what is it?
98.42 ± 2.84%

Need Freeze–thaw strability (three cycles) Accuracy, item O=c1c(O)c(-c2ccc(O)c(O)c2)oc2cc(O)cc(O)c12
100.31 ± 4.27%

What Freeze–thaw strability (three cycles) Accuracy value was documented for this compound, CC(C)(C)[C@]1(O)CC2OC(=O)CC23C(=O)OC2OC(=O)[C@H](O)C231 (stereo partly drawn) [BB, bilobalide] ?
98.88 ± 3.59%
